Value source: patent US5051417A

System: canine cardiac myofibrillar Ca++-dependent Mg++-ATPase
Method Description: Measurement of myofibrillar Ca++-dependent Mg++-ATPase activity on canine cardiac myofibrils
Assay type: biochemical
Condition Parameters: 10 μM; pH 7.0, 21° C.
Structures can show the parent of a compound that is named as a salt.
Recorded Metric: pCa (shift of the pCa giving 50% of the maximal control ATPase activity; Ca++ sensitivity)

Example cases with answers are listed next.
>>> print(df.to_string())
                                   compound  experimental_value
0  CON=C1C(=O)Nc2ccc(C3=NNC(=O)SC3C)cc21 (stereo not shown)                0.24
1  CC1SC(=O)NN=C1c1ccc2c(c1)C(=NNC(=O)c1cccnc1)C(=O)N2 (stereo not shown) [Example 38, hydrochloride]                1.10

(A) Cc1ccc(NN=C2C(=O)Nc3ccc(C4=NNC(=O)SC4C)cc32)cc1 (stereo not shown)
(B) CC1SC(=O)NN=C1c1ccc2c(c1)C(=NO)C(=O)N2 (stereo not shown)
IN: Of A and B , which carries the smaller reported pCa (shift of the pCa giving 50% of the maximal control ATPase activity; Ca++ sensitivity) figure? Record your answer as the label of the chosen record.
OUT: B

----------
Listed compounds paired with reported pCa (shift of the pCa giving 50% of the maximal control ATPase activity; Ca++ sensitivity)
Test system: canine cardiac myofibrillar Ca++-dependent Mg++-ATPase
Method Description: Measurement of myofibrillar Ca++-dependent Mg++-ATPase activity on canine cardiac myofibrils
Type: biochemical
Condition Parameters: 30 μM; pH 7.0, 21° C.

Recorded results for 2 compounds are shown here.
                                   compound                              assay_target  experimental_value
0  CC1SC(=O)NN=C1c1ccc2c(c1)C(=Cc1cccnc1)C(=O)N2 (stereo not drawn)  canine cardiac myofibrillar Ca++-dependent Mg++-ATPase        +0.23 ± 0.06
1  COC(=O)NN=C1C(=O)Nc2ccc(C3=NNC(=O)SC3C)cc21 (stereo not drawn)  canine cardiac myofibrillar Ca++-dependent Mg++-ATPase        +0.08 ± 0.04

Value (pCa (shift of the pCa giving 50% of the maximal control ATPase activity; Ca++ sensitivity), canine cardiac myofibrillar Ca++-dependent Mg++-ATPase) for record CC1SC(=O)NN=C1c1ccc2c(c1)C(=NNc1ccc(Cl)cc1)C(=O)N2 (stereo not drawn) = +0.78 ± 0.1

canine cardiac myofibrillar Ca++-dependent Mg++-ATPase pCa (shift of the pCa giving 50% of the maximal control ATPase activity; Ca++ sensitivity) of CC1SC(=O)NN=C1c1ccc2c(c1)C(=NOc1ccccc1)C(=O)N2 (stereo not drawn) is +0.36 ± 0.05

Measured pCa (shift of the pCa giving 50% of the maximal control ATPase activity; Ca++ sensitivity) (canine cardiac myofibrillar Ca++-dependent Mg++-ATPase), entry COc1ccc(NN=C2C(=O)Nc3ccc(C4=NNC(=O)SC4C)cc32)cc1 (stereo not drawn) : +0.94 ± 0.05

Entry CC1SC(=O)NN=C1c1ccc2c(c1)C(=NNc1ccc(Cl)c(Cl)c1)C(=O)N2 (stereo not drawn) : pCa (shift of the pCa giving 50% of the maximal control ATPase activity; Ca++ sensitivity) on canine cardiac myofibrillar Ca++-dependent Mg++-ATPase = +0.05 ± 0.03

The observed pCa (shift of the pCa giving 50% of the maximal control ATPase activity; Ca++ sensitivity) for CC1SC(=O)NN=C1c1ccc2c(c1)C(=Cc1ccccc1O)C(=O)N2 (stereo not drawn) when tested with canine cardiac myofibrillar Ca++-dependent Mg++-ATPase stands at +0.60 ± 0.07

----------
A collection of molecules and their measured pCa (shift of the pCa giving 50% of the maximal control ATPase activity; Ca++ sensitivity)
System: canine cardiac myofibrillar Ca++-dependent Mg++-ATPase
Method Description: Measurement of myofibrillar Ca++-dependent Mg++-ATPase activity on canine cardiac myofibrils
Format: biochemical
Condition Parameters: 30 μM; pH 7.0, 21° C.

// pCa (shift of the pCa giving 50% of the maximal control ATPase activity; Ca++ sensitivity) (canine cardiac myofibrillar Ca++-dependent Mg++-ATPase) for CC1SC(=O)NN=C1c1ccc2c(c1)C(=NNc1ccc(C(F)(F)F)cc1)C(=O)N2 (centres unmarked) [Example 42] = +0.30 ± 0.02

Case CC1SC(=O)N(C)N=C1c1ccc2c(c1)C(=NNc1ccccc1)C(=O)N2 (centres unmarked) [Example 41] , canine cardiac myofibrillar Ca++-dependent Mg++-ATPase, pCa (shift of the pCa giving 50% of the maximal control ATPase activity; Ca++ sensitivity) recorded as +0.11 ± 0.04

Observed pCa (shift of the pCa giving 50% of the maximal control ATPase activity; Ca++ sensitivity) on canine cardiac myofibrillar Ca++-dependent Mg++-ATPase, entry CC1SC(=O)NN=C1c1ccc2c(c1)C(=Nc1ccc(N(C)C)cc1)C(=O)N2 (centres unmarked) [Example 14] , equals +0.12 ± 0.02

Sample CC1SC(=O)NN=C1c1ccc2c(c1)C(Nc1ccccc1)C(=O)N2.Cl (centres unmarked) [Example 8] , system: canine cardiac myofibrillar Ca++-dependent Mg++-ATPase. Its pCa (shift of the pCa giving 50% of the maximal control ATPase activity; Ca++ sensitivity) is +0.87 ± 0.01

Simply: CC1SC(=O)NN=C1c1ccc2c(c1)C(=NNC1=NCCN1)C(=O)N2 (centres unmarked) [Example 13] , canine cardiac myofibrillar Ca++-dependent Mg++-ATPase, pCa (shift of the pCa giving 50% of the maximal control ATPase activity; Ca++ sensitivity) = +0.07 ± 0.02

----------
Tested on: canine cardiac myofibrillar Ca++-dependent Mg++-ATPase
Method Description: Measurement of myofibrillar Ca++-dependent Mg++-ATPase activity on canine cardiac myofibrils
Assay type: biochemical
Condition Parameters: 10 μM; pCa=5.47; pH 7.0, 21° C.
Protocol: 1. Measurement of myofibrillar Ca++-dependent Mq++-ATPase activity The effect on myofibrillar Ca++sensitivity and on maximal activity of myofibrillar Ca++-dependent Mg++-ATPase was determined on canine cardiac myofibrils. […] Before use, the pellet was suspended in a small amount of buffer, the protein concentration was determined by the method of BRADFORD M., Anal. Biochem., 1976, 72, 248 and adjusted in order to have a concentration between 6 and 7 mg/ml. […]
Structures can show the parent of a compound that is named as a salt.
Recorded Metric: max (percent change of maximal ATPase activity) (%)

>>> print(df.to_string())
                                   molecule  experimental_value
0  CC1SC(=O)NN=C1c1ccc2c(c1)C(=NNC(=O)c1cccnc1)C(=O)N2 (stereo not shown) [Example 38, hydrochloride]                  34
1  Cc1ccc(NN=C2C(=O)Nc3ccc(C4=NNC(=O)SC4C)cc32)cc1 (stereo not shown) [Example 21]                  41

----------
Let's go through some recorded IC50 values for canine cardiac PDE, CGI (Canis lupus familiaris, UniProt A0A8I3NYE0) together.
Recorded Metric: IC50 (nM)

>>> print(df.to_string())
                                   compound  experimental_value
0  CC1SC(=O)NN=C1c1ccc2c(c1)C(=NNC1=NCCN1)C(=O)N2 (stereo not shown)               14000
1  COC(=S)NN=C1C(=O)Nc2ccc(C3=NNC(=O)SC3C)cc21 (stereo not shown)                 270

(A) CC1SC(=O)NN=C1c1ccc2c(c1)C(=NO)C(=O)N2 (stereo not shown)
(B) CC1SC(=O)NN=C1c1ccc2c(c1)C(Nc1ccccc1)C(=O)N2.Cl (stereo not shown) [Example 8, hydrochloride]
IN: Given A and given B , which shows the smaller recorded IC50? The response must carry the label of the picked entry.
OUT: A
(A: 660 nM, B: 1200 nM)

----------
Test system: canine cardiac myofibrillar Ca++-dependent Mg++-ATPase
Method Description: Measurement of myofibrillar Ca++-dependent Mg++-ATPase activity on canine cardiac myofibrils
Assay type: biochemical
Condition Parameters: 30 μM; pCa=5.47; pH 7.0, 21° C.
Description: 1. Measurement of myofibrillar Ca++-dependent Mq++-ATPase activity The effect on myofibrillar Ca++sensitivity and on maximal activity of myofibrillar Ca++-dependent Mg++-ATPase was determined on canine cardiac myofibrils. […] Before use, the pellet was suspended in a small amount of buffer, the protein concentration was determined by the method of BRADFORD M., Anal. Biochem., 1976, 72, 248 and adjusted in order to have a concentration between 6 and 7 mg/ml. […]
Counter-ions that a name gives are not always drawn.
Recorded Metric: max (percent change of maximal ATPase activity) (%)

In [3]: df
Out[3]:
                                   compound  endpoint_unit  experimental_value
0  CCOC(=O)CON=C1C(=O)Nc2ccc(C3=NNC(=O)SC3C)cc21 (stereo not shown)              %                   8

(A) CC1SC(=O)N(C)N=C1c1ccc2c(c1)C(=NNc1ccccc1)C(=O)N2 (stereo not shown)
(B) CC1SC(=O)NN=C1c1ccc2c(c1)C(=NNC(=O)c1cccnc1)C(=O)N2 (stereo not shown) [Example 38, hydrochloride]
(C) CC#N.CC1SC(=O)NN=C1c1ccc2c(c1)C(=NNc1ccc(S(C)(=O)=O)cc1)C(=O)N2 (stereo not shown)
IN: Please produce an ascending ranking of these compounds based on max (percent change of maximal ATPase activity). Answer by naming the labels in the order asked.
OUT: C, A, B
(C: 3%, A: 7%, B: 34%)
